- test_system: UniProt Q15418
- Sequence (Q15418 whole entry): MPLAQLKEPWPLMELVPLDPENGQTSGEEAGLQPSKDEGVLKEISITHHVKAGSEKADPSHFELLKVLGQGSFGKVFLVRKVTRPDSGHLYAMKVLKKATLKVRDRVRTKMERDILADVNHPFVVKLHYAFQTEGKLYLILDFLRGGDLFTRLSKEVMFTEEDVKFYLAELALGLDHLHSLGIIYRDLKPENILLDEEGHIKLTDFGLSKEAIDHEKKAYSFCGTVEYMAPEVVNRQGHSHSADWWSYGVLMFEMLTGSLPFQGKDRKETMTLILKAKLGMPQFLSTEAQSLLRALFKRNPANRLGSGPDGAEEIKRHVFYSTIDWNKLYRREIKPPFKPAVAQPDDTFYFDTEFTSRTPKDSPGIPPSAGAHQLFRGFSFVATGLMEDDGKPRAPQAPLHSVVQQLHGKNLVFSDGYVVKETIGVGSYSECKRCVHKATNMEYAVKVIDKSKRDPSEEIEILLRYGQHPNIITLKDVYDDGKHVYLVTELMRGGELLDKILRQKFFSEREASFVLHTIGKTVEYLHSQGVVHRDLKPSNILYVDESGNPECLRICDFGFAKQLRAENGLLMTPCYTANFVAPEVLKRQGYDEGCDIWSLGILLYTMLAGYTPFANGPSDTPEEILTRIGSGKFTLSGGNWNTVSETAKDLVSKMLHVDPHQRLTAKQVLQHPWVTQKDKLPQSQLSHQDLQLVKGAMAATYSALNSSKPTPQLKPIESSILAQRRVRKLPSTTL
- test_protocol: Inhibition of RSK1 (unknown origin) at 30 uM by microfluidic mobility shift assay relative to control
# inhibition listing for each entry below

{"compound": "CNC(=O)C1CCC2(CCN(c3ncnc4[nH]cnc34)CC2)NC1 (racemic)", "inhibition / %": 42}
{"compound": "O=S(=O)(c1cccc2cnccc12)N1CCC2(CCNC2)CC1", "inhibition / %": 33}
{"compound": "OCC1CCC2(CCN(c3ncnc4[nH]cnc34)CC2)NC1 (racemic)", "inhibition / %": 74}
{"compound": "c1nc(N2CCC3(CCCCC3)CC2)c2nc[nH]c2n1", "inhibition / %": 45}
{"compound": "O=S(=O)(c1cccc2cnccc12)N1CCC2(CCC(O)CN2)CC1 (racemic)", "inhibition / %": 95}
{"compound": "O=S(=O)(c1cccc2cnccc12)N1CCC2(CCCCN2)CC1", "inhibition / %": 66}
{"compound": "O=S(=O)(c1cccc2cnccc12)N1CCC2(CCCNC2)CC1", "inhibition / %": 29}
{"compound": "c1nc(N2CCC3(CCCCO3)CC2)c2nc[nH]c2n1", "inhibition / %": 64}
{"compound": "COC(=O)C1CCC2(CCN(c3ncnc4[nH]cnc34)CC2)NC1 (racemic)", "inhibition / %": 35}
{"compound": "NC1(Cc2ccccc2)CCN(c2ncnc3[nH]cnc23)CC1", "inhibition / %": 94}
{"compound": "c1ccc(CC2CCNC3(CCN(c4ncnc5[nH]cnc45)CC3)C2)cc1 (racemic)", "inhibition / %": 90}

###

- test_system: Mitogen-activated protein kinase 3 (Homo sapiens)
- Sequence (P27361 whole entry): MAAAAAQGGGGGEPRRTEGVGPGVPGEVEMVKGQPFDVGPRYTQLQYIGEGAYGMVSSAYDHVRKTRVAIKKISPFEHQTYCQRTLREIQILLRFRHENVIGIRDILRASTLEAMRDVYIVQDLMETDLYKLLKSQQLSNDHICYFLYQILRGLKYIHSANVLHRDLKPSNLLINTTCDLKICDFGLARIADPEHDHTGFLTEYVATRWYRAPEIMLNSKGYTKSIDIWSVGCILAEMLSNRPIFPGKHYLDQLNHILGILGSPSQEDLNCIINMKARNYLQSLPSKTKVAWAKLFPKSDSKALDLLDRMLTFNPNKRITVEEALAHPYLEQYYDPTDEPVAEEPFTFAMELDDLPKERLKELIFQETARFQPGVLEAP
- test_protocol: Inhibition of ERK1 (unknown origin) at 30 uM by microfluidic mobility shift assay relative to control
Dear colleague, classification is by inhibition, with ranges listed here: low interval = under 20%, middle interval = from 20% up to 40%, high interval = 40% and over

{"compound": "c1nc(N2CCC3(CCCNC3)CC2)c2nc[nH]c2n1", "test_system": "Mitogen-activated protein kinase 3 (Homo sapiens)", "category": "high interval"}
{"compound": "c1ccc(CC2CCC3(CCN(c4ncnc5[nH]cnc45)CC3)NC2)cc1 (racemic)", "test_system": "Mitogen-activated protein kinase 3 (Homo sapiens)", "category": "middle interval"}
{"compound": "O=S(=O)(c1cccc2cnccc12)N1CCC2(CCCCN2)CC1", "test_system": "Mitogen-activated protein kinase 3 (Homo sapiens)", "category": "low interval"}
{"compound": "c1nc(N2CCCC3(CCCNC3)C2)c2nc[nH]c2n1 (stereo unspecified)", "test_system": "Mitogen-activated protein kinase 3 (Homo sapiens)", "category": "low interval"}
{"compound": "c1nc(N2CCC3(CCCCO3)CC2)c2nc[nH]c2n1", "test_system": "Mitogen-activated protein kinase 3 (Homo sapiens)", "category": "middle interval"}
{"compound": "c1nc(N2CCC3(CCCCN3)CC2)c2nc[nH]c2n1", "test_system": "Mitogen-activated protein kinase 3 (Homo sapiens)", "category": "high interval"}
{"compound": "c1ccc(C2CCC3(CCN(c4ncnc5[nH]cnc45)CC3)NC2)cc1 (stereo unspecified)", "test_system": "Mitogen-activated protein kinase 3 (Homo sapiens)", "category": "middle interval"}
{"compound": "O=S(=O)(c1cccc2cnccc12)N1CCC2(CCNC2)CC1", "test_system": "Mitogen-activated protein kinase 3 (Homo sapiens)", "category": "low interval"}

The origin of these recorded values is ChEMBL document CHEMBL2417369.
